- System name: T1, GLP-1R (INS1e assay) (UniProt P32301 22-463, limits assumed)
- T1 sequence (looked up): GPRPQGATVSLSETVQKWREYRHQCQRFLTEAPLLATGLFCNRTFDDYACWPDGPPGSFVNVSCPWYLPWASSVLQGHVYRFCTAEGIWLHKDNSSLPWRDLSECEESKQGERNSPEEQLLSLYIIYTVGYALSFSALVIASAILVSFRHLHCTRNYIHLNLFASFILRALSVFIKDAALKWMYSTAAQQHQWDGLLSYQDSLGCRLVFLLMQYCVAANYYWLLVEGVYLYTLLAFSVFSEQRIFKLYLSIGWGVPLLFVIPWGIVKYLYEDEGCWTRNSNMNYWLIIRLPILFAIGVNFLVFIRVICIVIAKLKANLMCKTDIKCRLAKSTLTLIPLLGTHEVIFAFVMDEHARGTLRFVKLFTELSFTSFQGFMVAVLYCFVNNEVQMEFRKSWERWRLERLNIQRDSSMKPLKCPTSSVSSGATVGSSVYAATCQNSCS
- Procedure details: cell-based or functional assay
Starred links: 1 amine or outer side, 2 acyl side, 3 side chain; linkers in the order of their positions; H or OH if unused. Non-standard residues stand in square brackets, D forms with d. Groups on a side chain read outwards from the residue. Primed or numbered codes have the meaning given here. No end group written: not given here. *: point of attachment. Dodecylbenzoate = dodecylbenzoyl lipid group; γGlu = O=C(O)[C@H](CCC(=O)[*:2])N[*:1]; Stearoyl = CCCCCCCCCCCCCCCCCC(=O)*; αMeF = C[C@](N)(Cc1ccccc1)C(=O)O; αMeK = C[C@](N)(CCCCN)C(=O)O; Lauroyl = CCCCCCCCCCCC(=O)*; αMeS = C[C@](N)(CO)C(=O)O; PEG2′ = not defined here; Aib = CC(C)(N)C(=O)O
Reported property: INS1e assay EC50 GLP-1 R n1

Worked set:
Binder: H[Aib]EGS[αMeF]TSDV[αMeS]S[αMeF]LEGEAAK([PEG2′-PEG2′-γGlu-Stearoyl])EFIA[αMeF]VV[αMeK]GG-NH2 [SEQ ID NO 48]
INS1e assay EC50 GLP-1 R n1: 0.729 nM
--
Binder: H[Aib]EGS[αMeF]TSDV[αMeS]S[αMeF]LEGEAAK([PEG2′-PEG2′-PEG2′-Stearoyl])E[αMeF]IA[αMeF]VV[αMeK]GG-NH2 [SEQ ID NO 154]
INS1e assay EC50 GLP-1 R n1: 0.0323 nM
--
Binder: H[Aib]EGS[αMeF]TSDV[αMeS]S[αMeF]LEGEAA[αMeK]E[αMeF]IA[αMeF]VV[αMeK]K([PEG2′-PEG2′-γGlu-Stearoyl])G-NH2 [SEQ ID NO 100]
INS1e assay EC50 GLP-1 R n1: 0.233 nM
--
Binder: HXEGSFTSDVSKFLEGEAAKEFIAFVVKGG (Aib2; α-MeF6; α-MeS11; K12(ε-γE-Palmitoyl); α-MeF13; α-MeK20; α-MeF22; α-MeF25; α-MeK28; C-terminal amide) [SEQ ID NO 88]
INS1e assay EC50 GLP-1 R n1: 0.277 nM
--
Binder: H[Aib]EGS[αMeF]TSDV[αMeS]S[αMeF]LEGEAAK([PEG2′-PEG2′-γGlu-Stearoyl])E[αMeF]IAWVV[αMeK]GG-NH2 [SEQ ID NO 49]
INS1e assay EC50 GLP-1 R n1: 9.35 nM

Problem: Could you share which INS1e assay EC50 GLP-1 R n1 value was measured for H[Aib]EGS[αMeF]TSDV[αMeS]S[αMeF]LEGEAAK([PEG2′-Lauroyl])E[αMeF]IA[αMeF]VV[αMeK]GG-NH2 [SEQ ID NO 134] ?
Result: 0.168 nM

Problem: I have this binder here, H[Aib]EGS[αMeF]TSDV[αMeS]S[αMeF]LEGEAAKEFIK([PEG2′-PEG2′-γGlu-Stearoyl])WVVEGG-NH2 [SEQ ID NO 65] , and I need its recorded INS1e assay EC50 GLP-1 R n1.
Result: 2.57 nM

Problem: I'd like to know its INS1e assay EC50 GLP-1 R n1. The binder in question is H[Aib]EGS[αMeF]TSDVSK([PEG2′-PEG2′-PEG2′-Stearoyl])YLEGEAA[αMeK]E[αMeF]IA[αMeF]VVEGG-NH2 [SEQ ID NO 64]
Result: 0.0068 nM

Problem: Looking for the measured INS1e assay EC50 GLP-1 R n1 of H[Aib]EGS[αMeF]TSDV[αMeS]S[αMeF]LEGEAAK([PEG2′-PEG2′-PEG2′-Stearoyl])E[αMeF]IAWVV[αMeK]GG-NH2 [SEQ ID NO 55] , can you help?
Result: 0.0125 nM

Problem: Dear colleague, I am looking for the recorded INS1e assay EC50 GLP-1 R n1 of the following binder: H[Aib]EGS[αMeF]TSDV[αMeS]S[αMeF]LEGEAA[αMeK]E[αMeF]IA[αMeF]VVK([PEG2′-PEG2′-Dodecylbenzoate])GG-NH2 [SEQ ID NO 180]
Result: 0.0678 nM
